src = the supplement of paper PMC3334620

Experimental System: Stb5 (UniProt P38699)
Sequence: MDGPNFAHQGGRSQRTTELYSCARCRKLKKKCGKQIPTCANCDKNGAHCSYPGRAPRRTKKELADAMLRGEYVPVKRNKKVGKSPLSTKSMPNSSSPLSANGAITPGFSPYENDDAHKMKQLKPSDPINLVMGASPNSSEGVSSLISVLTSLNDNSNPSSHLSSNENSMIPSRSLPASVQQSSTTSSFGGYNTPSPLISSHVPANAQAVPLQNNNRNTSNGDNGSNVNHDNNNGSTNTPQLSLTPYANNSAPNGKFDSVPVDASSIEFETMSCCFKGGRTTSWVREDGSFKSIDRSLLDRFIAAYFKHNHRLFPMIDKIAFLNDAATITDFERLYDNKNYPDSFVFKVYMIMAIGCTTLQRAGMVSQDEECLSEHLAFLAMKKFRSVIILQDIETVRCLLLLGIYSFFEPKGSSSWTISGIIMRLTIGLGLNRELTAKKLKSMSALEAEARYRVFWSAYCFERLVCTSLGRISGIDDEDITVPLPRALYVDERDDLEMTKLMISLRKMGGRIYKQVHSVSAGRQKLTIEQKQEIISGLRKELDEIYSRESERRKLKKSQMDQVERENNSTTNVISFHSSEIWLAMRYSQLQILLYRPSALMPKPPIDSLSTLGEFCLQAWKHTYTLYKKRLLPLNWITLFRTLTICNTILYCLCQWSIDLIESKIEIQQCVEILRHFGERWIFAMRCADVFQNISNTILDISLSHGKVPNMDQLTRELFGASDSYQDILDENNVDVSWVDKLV
Experiment Summary: PBM E-score (8-mer binding enrichment) (E-score (-0.5 to 0.5)); higher = stronger / more preferred TF binding
Reported Conditions: protein concentration: 200 nM; construct: GST-full length
The full ranking holds about 33,000 sequences; the median of “E-score (-0.5 to 0.5)” is about -0.054, and the highest 2% start at about 0.35. This is one part of a sample in which the highest values are shown more often than they occur.
Label rule, in plain words: PBM E-score of 0.1 and up is true (1), under 0.1 is false (0).

Sequence Content	Class
AGAACTAA	false (0)
CCCCGGGG	true (1)
CTAATGCC	true (1)
CTAATCCA	false (0)
GCTTTTAC	true (1)
ATCAAGGA	false (0)
GAACCATC	false (0)
AAGCTGAA	false (0)
ATAAATCG	false (0)
GGTTGTCA	false (0)
GGAACTAA	true (1)
ATAAATCA	false (0)
ACCCCGGT	true (1)
CCGGGTCA	true (1)
TGAACTAA	false (0)
ATAATGCC	true (1)
GGGGGTGA	false (0)
GCATAAGC	false (0)
CCGGGTGA	true (1)
CGGGGTCA	true (1)
GGGGGTCA	false (0)
